system: Fibroblast; assay: Multiplex assay against human fibroblast; format: toxicity, cell-based; conditions: 24 h, 10 µM, compound concentration 10 uM, replicate 1
Rule: Population Hoechst High Intensity Objects (%) below 20% gives TRUE, anything at or above gives FALSE.

In [3]: df
Out[3]:
                                   compound  group
0  Cc1ccc2c(c1)c1c(n2CCc2ccc(C)nc2)CCN(C)C1 [LATREPIRDINE]  FALSE
1  Cc1c[nH]c2nccc(Oc3c(F)cc(Nc4cc(Cl)nc(N)n4)cc3F)c12  FALSE
2  Cc1ccccc1C(c1ccccc1C)N1C2CCC1CC(O)(c1ccccc1)C2 (stereo unspecified)   TRUE
3  O=C(c1cc2c(cc1F)OC(c1ccc(F)cc1)(c1ccc(Cl)cc1Cl)O2)N1CCOCC1 (stereo unspecified)   TRUE
4  C=CC(=O)Nc1ccc2[nH]c(=O)n(C3CCN(Cc4ccc(-c5nc6cc[nH]c(=O)c6cc5-c5ccccc5)cc4)CC3)c2c1  FALSE
5  COc1ccc(-c2ccc3ncc4c(c3c2)n(-c2ccc(N3CCNCC3)c(C(F)(F)F)c2)c(=O)n4C)cn1.O=C(O)/C=C\C(=O)O  FALSE

====

system: Fibroblast; assay: Multiplex assay against human fibroblast; format: toxicity, cell-based; settings: 48 h, 1 µM, compound concentration 1 uM, replicate 1
observed property: Population Tubulin-Different-Phenotype (%)

>>> print(df.to_string())
                              smiles_record  target_or_system  measured_result
0  CC(C)Oc1ccccc1C(=O)Nc1ccccc1C(=O)Nc1cccc(S(=O)(=O)C(F)(F)F)c1        Fibroblast               49
1  CN1CCN(Cc2ccc(Nc3ncc(Cl)c(Nc4ccccc4S(=O)(=O)N(C)C)n3)cc2)CC1        Fibroblast               40
2  CC(C)c1noc(N2CCC(COc3ccc(-c4ccc(S(C)(=O)=O)cc4)nc3)CC2)n1        Fibroblast               50

====

test system: Fibroblast; assay: Multiplex assay against human fibroblast; type: toxicity, cell-based; settings: 12 h, 10 µM, compound concentration 10 uM, replicate 2
Entries and their measured Population Fragmented Nuclei (%) follow.
observed property: Population Fragmented Nuclei (%)

                                    compound                 observed_property  measured_result
 0  CCc1ccc(OCc2ccccc2C(=O)Nc2ccc3nc(C)cc(N)c3c2)cc1.Cl  Population Fragmented Nuclei (%)               8%
 1  CC(C)Oc1ccccc1C(=O)Nc1ccccc1C(=O)Nc1cccc(S(=O)(=O)C(F)(F)F)c1  Population Fragmented Nuclei (%)              17%
 2  CC(C)CC(=O)Nc1[nH]nc2c1CN(C(=O)C1CCN(C)CC1)C2(C)C  Population Fragmented Nuclei (%)              68%
 3  COc1cc2ncn(-c3cc(OCc4ccccc4C(F)(F)F)c(C(N)=O)s3)c2cc1OC [GW843682X]  Population Fragmented Nuclei (%)              13%
 4  CC(C)NC(=O)N1CC[C@H](NC2=Nc3cc(F)ccc3N(CC(F)F)c3ccc(Cl)cc32)C1  Population Fragmented Nuclei (%)               6%
 5  COc1ccccc1CN[C@H]1C2CCN(CC2)[C@H]1C(c1ccccc1)c1ccccc1  Population Fragmented Nuclei (%)               2%
 6  CC(C)c1noc(N2CCC(COc3ccc(-c4ccc(S(C)(=O)=O)cc4)nc3)CC2)n1  Population Fragmented Nuclei (%)               5%
 7  COc1ccc(-c2ccc3ncc4c(c3c2)n(-c2ccc(N3CCNCC3)c(C(F)(F)F)c2)c(=O)n4C)cn1.O=C(O)/C=C\C(=O)O  Population Fragmented Nuclei (%)              70%
 8  Cc1nc(N2CC[C@H](O)C2)ncc1-c1cc(C(F)(F)F)cc2[nH]ncc12  Population Fragmented Nuclei (%)              68%
 9  COC(=O)C1=C(C)NC(C)=C(C(=O)OCCCN2CCC(c3ccccc3)(c3ccccc3)CC2)[C@H]1c1cccc([N+](=O)[O-])c1  Population Fragmented Nuclei (%)              67%
10  C=CC(=O)Nc1cccc(Sc2nc(Nc3ccc(N4CCN(C)CC4)cc3)ncc2Cl)c1  Population Fragmented Nuclei (%)              62%
11  COc1cc(Nc2nccc(-c3cnn4nc(OC)ccc34)n2)cc(C(F)(F)F)c1  Population Fragmented Nuclei (%)              27%
12       CC(C)(C)NC[C@H](O)COc1nsnc1N1CCOCC1  Population Fragmented Nuclei (%)               8%

====

tested on: HEK-293T; experiment: Multiplex assay against HEK293T; type: toxicity, cell-based; settings: human, 48 h, 10 µM, compound concentration 10 uM, replicate 2
Listing: Population Apoptotic (%) of selected molecules
observed property: Population Apoptotic (%)

>>> print(df.to_string())
                                   molecule  target_or_system  measured_result
0  Cl.O=C(O)c1cc(-c2ccc(C3CCNCC3)cc2)c2ccc(-c3ccc(C(F)(F)F)cc3)cc2c1          HEK-293T               40
1  Cc1c[nH]c2nccc(Oc3c(F)cc(Nc4cc(Cl)nc(N)n4)cc3F)c12 [BAY-549]          HEK-293T               56
2  Cc1ccccc1C(c1ccccc1C)N1C2CCC1CC(O)(c1ccccc1)C2 (centres undefined)          HEK-293T               23
3  CC(C)c1noc(N2CCC(COc3ccc(-c4ccc(S(C)(=O)=O)cc4)nc3)CC2)n1 [GSK-1292263]          HEK-293T               14
4  COc1ccccc1CN[C@H]1C2CCN(CC2)[C@H]1C(c1ccccc1)c1ccccc1 [CP-96345]          HEK-293T               39
5  CC(C)NC(=O)N1CC[C@H](NC2=Nc3cc(F)ccc3N(CC(F)F)c3ccc(Cl)cc32)C1          HEK-293T               48
6  Cc1ccc(C)c(Oc2ccncc2C(=O)N2CCN(C3CC3)c3ccccc32)c1          HEK-293T               76
7  C#Cc1cccc(Nc2ncnc3cc(OCCOC)c(OCCOC)cc23)c1 [ERLOTINIB]          HEK-293T               45
8  COC(=O)C1=C(C)NC(C)=C(C(=O)OCCCN2CCC(c3ccccc3)(c3ccccc3)CC2)[C@H]1c1cccc([N+](=O)[O-])c1 [NIGULDIPINE]          HEK-293T               93

====

system: U2OS; experiment: Multiplex assay against U2OS; type: toxicity, cell-based; conditions: human, 12 h, 10 µM, compound concentration 10 uM, replicate 1
observed property: Population Healthy Nuclei (%)

>>> print(df.to_string())
                              smiles_record              observed_property  unit_spec  measured_result
0  C[C@]12CC[C@@H]3c4ccc(O)cc4CC[C@H]3[C@@H]1CC[C@@H]2O  Population Healthy Nuclei (%)          %               82
1  CN1CCN(Cc2ccc(Nc3ncc(Cl)c(Nc4ccccc4S(=O)(=O)N(C)C)n3)cc2)CC1  Population Healthy Nuclei (%)          %               44
2  CC(C)Oc1ccccc1C(=O)Nc1ccccc1C(=O)Nc1cccc(S(=O)(=O)C(F)(F)F)c1  Population Healthy Nuclei (%)          %               61
3  COc1ccc(-c2ccc3ncc4c(c3c2)n(-c2ccc(N3CCNCC3)c(C(F)(F)F)c2)c(=O)n4C)cn1.O=C(O)/C=C\C(=O)O  Population Healthy Nuclei (%)          %                1

====

test system: HEK-293T; assay: Multiplex assay against HEK293T; type: toxicity, cell-based; conditions: human, 12 h, 10 µM, compound concentration 10 uM, replicate 2
Recorded measurements of Population Apoptotic (%), one per entry
observed property: Population Apoptotic (%)

>>> print(df.to_string())
                                    compound  target_or_system  measured_result
 0  Cc1cccc(CN2CCN(C(c3ccccc3)c3ccc(Cl)cc3)CC2)c1.Cl.Cl (stereo not given)          HEK-293T               42
 1  C[C@]12CC[C@@H]3c4ccc(O)cc4CC[C@H]3[C@@H]1CC[C@@H]2O [ESTRADIOL]          HEK-293T               10
 2  Cc1ccc2c(c1)c1c(n2CCc2ccc(C)nc2)CCN(C)C1 [LATREPIRDINE]          HEK-293T               91
 3  COc1ccc(-c2ccc3ncc4c(c3c2)n(-c2ccc(N3CCNCC3)c(C(F)(F)F)c2)c(=O)n4C)cn1.O=C(O)/C=C\C(=O)O [BGT-226]          HEK-293T               96
 4  CC(C)c1noc(N2CCC(COc3ccc(-c4ccc(S(C)(=O)=O)cc4)nc3)CC2)n1 [GSK-1292263]          HEK-293T               13
 5  CC(C)(C)NC[C@H](O)COc1nsnc1N1CCOCC1 [TIMOLOL]          HEK-293T                8
 6  CC(C)OC(=O)N1CCC(Oc2ncnc3c2cnn3-c2ccc(S(C)(=O)=O)cc2F)CC1          HEK-293T                5
 7  Cl.O=C(O)c1cc(-c2ccc(C3CCNCC3)cc2)c2ccc(-c3ccc(C(F)(F)F)cc3)cc2c1          HEK-293T               64
 8  COC(=O)C1=C(C)NC(C)=C(C(=O)OCCCN2CCC(c3ccccc3)(c3ccccc3)CC2)[C@H]1c1cccc([N+](=O)[O-])c1 [NIGULDIPINE]          HEK-293T               63
 9  CC1=C(C(=O)Nc2cc3cn[nH]c3cc2F)C(c2ccc(C(F)(F)F)cc2)CC(=O)N1 (stereo not given)          HEK-293T               16
10  CC(C)NC(=O)N1CC[C@H](NC2=Nc3cc(F)ccc3N(CC(F)F)c3ccc(Cl)cc32)C1          HEK-293T               20
11  C=CC(=O)Nc1ccc2[nH]c(=O)n(C3CCN(Cc4ccc(-c5nc6cc[nH]c(=O)c6cc5-c5ccccc5)cc4)CC3)c2c1 [Borussertib]          HEK-293T               17
12  CNC(=O)Nc1ccc(-c2nc(N3CC4CCC(C3)O4)c3cnn(C4CCC5(CC4)OCCO5)c3n2)cc1          HEK-293T               56
13  Cc1ccc(C)c(Oc2ccncc2C(=O)N2CCN(C3CC3)c3ccccc32)c1          HEK-293T               56
14  COc1ccccc1CN[C@H]1C2CCN(CC2)[C@H]1C(c1ccccc1)c1ccccc1 [CP-96345]          HEK-293T               25
15  Cc1c[nH]c2nccc(Oc3c(F)cc(Nc4cc(Cl)nc(N)n4)cc3F)c12 [BAY-549]          HEK-293T               16
16  CC(C)Oc1ccccc1C(=O)Nc1ccccc1C(=O)Nc1cccc(S(=O)(=O)C(F)(F)F)c1          HEK-293T               66
17  COc1cc(Nc2nccc(-c3cnn4nc(OC)ccc34)n2)cc(C(F)(F)F)c1          HEK-293T               21
18  O=c1cc(N2CCOCC2)oc2c(-c3cccc4c3sc3ccccc34)cccc12          HEK-293T               49
19  O=c1[nH]c2ccccc2n1C1CCN(Cc2ccc(-c3[nH]c4cc5ncnc5cc4nc3-c3ccccc3)cc2)CC1          HEK-293T               24
20  CCc1ccc(OCc2ccccc2C(=O)Nc2ccc3nc(C)cc(N)c3c2)cc1.Cl          HEK-293T               62
21  CN1CCN(Cc2ccc(Nc3ncc(Cl)c(Nc4ccccc4S(=O)(=O)N(C)C)n3)cc2)CC1 [DUBERMATINIB]          HEK-293T               16
22  CCc1nn(CCCN2CCN(c3cccc(Cl)c3)CC2)c(=O)n1CCOc1ccccc1.Cl [NEFAZODONE HYDROCHLORIDE]          HEK-293T               83
23  Cc1nc(N2CC[C@H](O)C2)ncc1-c1cc(C(F)(F)F)cc2[nH]ncc12          HEK-293T                5
24  CN(c1ccccc1CNc1nc(Nc2ccc3c(c2)CC(=O)N3)ncc1C(F)(F)F)S(C)(=O)=O          HEK-293T               17
